Tested on: Malme-3M
Assay: NCI tumour cell line growth inhibition, 48 h
The source made the active and inactive calls. Rule as the data show it: active = GI50 up to about 1.1 µM and inactive = higher.
GI50 overview

Use the examples below as a reference point.
{"columns": ["Compound", "GI50"],
 "data": [
  ["C=CC[P@]1(=O)O[C@H](c2ccccc2)C(C)N1C(C)C (stereo not given in full)", "> 100 µM (inactive)"],
  ["COc1cc2c(/C=C3/C(=O)N(c4ccccc4)c4ccccc43)c(Cl)[nH]c2cc1C", "4.29 µM (inactive)"],
  ["COC(=O)C1=CN(C2CCCCC2)C2(c3ccccc3)c3ccccc3C(=O)OC(=O)C12 (stereo not given)", "> 100 µM (inactive)"],
  ["O=C1C=C(N2CCN(c3ncccn3)CC2)C(=O)c2c(O)ccc(O)c21", "6.35 µM (inactive)"],
  ["Cc1cc(OC(=O)Nc2ccc(Cl)cc2)ccc1C(=S)Nc1ccccc1", "53 µM (inactive)"]
]}

Query GI50 for COc1cc(OCc2ccc3nc(OC)c(OC)nc3c2)cc(OC)c1OC
> 10 µM (inactive)

Query GI50 for COC(=O)c1ccccc1/C=C1\Cc2c(C)c3c(c(C)c2C1=O)CCC3
> 100 µM (inactive)

----------
System: M14
Assay: NCI tumour cell line growth inhibition, 48 h
Structures can show the parent of a compound that is named as a salt. Activity calls are given as the source filed them. Cut-off read from the data, not from the text of the source: active = GI50 up to about 1.1 µM and inactive = higher.
Your answer must be one of the following: active, inactive

See these solved cases before continuing.
{"columns": ["Molecule", "Assigned Class"],
 "data": [
  ["NCCCCNCCCN1CCOC1=O", "inactive"],
  ["COC(=O)C1=CN(C2CCCCC2)C2(c3ccccc3)c3ccccc3C(=O)OC(=O)C12 (stereo unspecified)", "inactive"],
  ["O=C1CCc2ccc(O)c(c2)Oc2ccc(cc2)C(Sc2ccccc2)CCO1 (stereo unspecified)", "inactive"],
  ["COC(=O)C1=CO[C@@H](C)[C@@H]2Cn3ccc4c5ccccc5nc-4c3C[C@H]12 [ALSTONINE HYDROCHLORIDE]", "inactive"],
  ["C#C[C@@]1(O)CCCC2=CC3(CC[C@]21C)SCCS3", "inactive"]
]}

Dear colleague, could you share the recorded outcome for Cn1c(=O)c2nc(CCCCc3nc4c(=O)n(C)c(=S)n(C)c4[nH]3)[nH]c2n(C)c1=S when you have a moment?
inactive

Dear colleague, could you share the recorded outcome for CCOc1snc(C(Cl)(Cl)Cl)c1Cl when you have a moment?
inactive

Dear colleague, could you share the recorded outcome for N#CCCN(CCC#N)c1ccc(/C=C2\SC(=S)NC2=O)cc1Br when you have a moment?
inactive

Dear colleague, could you share the recorded outcome for CCCc1c(Cl)nc(Cl)nc1Cl when you have a moment?
active

Dear colleague, could you share the recorded outcome for O=[Se](O)O when you have a moment?
inactive

Dear colleague, could you share the recorded outcome for Cc1ccc([N+](=O)[O-])cc1S(=O)(=O)Nc1ccc(C2=NN(c3ccc([N+](=O)[O-])cc3[N+](=O)[O-])C(c3ccccc3O)C2)cc1 (stereo unspecified) when you have a moment?
inactive

----------
System: HOP-92
Assay: NCI tumour cell line growth inhibition, 48 h
Active and inactive are the calls of the source. Rule as the data show it: active = GI50 up to about 1.1 µM and inactive = higher.
Reported Endpoint: GI50

{"columns": ["Compound Smiles", "GI50"],
 "data": [
  ["Cc1cc2c(c(C(=O)NCC(=O)O)c1)Oc1c(cc(C)cc1C(=O)NCC(=O)O)S2", "> 100 µM (inactive)"],
  ["COc1ccc2c(c1)CCN=C2Cc1cc(OC)c(OC)cc1CCCl", "11.1 µM (inactive)"],
  ["Cc1cccc2nc3cccc(C(=O)NCCC[N+](C)(CCCNC(=O)c4cccc5nc6cccc(C)c6nc45)Cc4c([N+](=O)[O-])ncn4C)c3nc12", "23.9 µM (inactive)"],
  ["O=C(CSc1nc(-c2ccccc2)c(-c2ccccc2)[nH]1)NNC(=S)Nc1ccccc1", "36.2 µM (inactive)"]
]}

Moving on to the next molecule.
Query GI50 for C=CCN1/C(=C(\C#N)c2nc3ccccc3[nH]2)Sc2c1nc[nH]c2=O
> 100 µM (inactive)
